// values below are reported IC50
Target: HSV-1 helicase-primase (Human herpesvirus 1, UniProt P10189+P10236)
Construct: made in house; host or cells: Sf21 insect cells triply infected with recombinant baculoviruses (UL5, UL8, UL52)
Sequence (P10192 whole entry): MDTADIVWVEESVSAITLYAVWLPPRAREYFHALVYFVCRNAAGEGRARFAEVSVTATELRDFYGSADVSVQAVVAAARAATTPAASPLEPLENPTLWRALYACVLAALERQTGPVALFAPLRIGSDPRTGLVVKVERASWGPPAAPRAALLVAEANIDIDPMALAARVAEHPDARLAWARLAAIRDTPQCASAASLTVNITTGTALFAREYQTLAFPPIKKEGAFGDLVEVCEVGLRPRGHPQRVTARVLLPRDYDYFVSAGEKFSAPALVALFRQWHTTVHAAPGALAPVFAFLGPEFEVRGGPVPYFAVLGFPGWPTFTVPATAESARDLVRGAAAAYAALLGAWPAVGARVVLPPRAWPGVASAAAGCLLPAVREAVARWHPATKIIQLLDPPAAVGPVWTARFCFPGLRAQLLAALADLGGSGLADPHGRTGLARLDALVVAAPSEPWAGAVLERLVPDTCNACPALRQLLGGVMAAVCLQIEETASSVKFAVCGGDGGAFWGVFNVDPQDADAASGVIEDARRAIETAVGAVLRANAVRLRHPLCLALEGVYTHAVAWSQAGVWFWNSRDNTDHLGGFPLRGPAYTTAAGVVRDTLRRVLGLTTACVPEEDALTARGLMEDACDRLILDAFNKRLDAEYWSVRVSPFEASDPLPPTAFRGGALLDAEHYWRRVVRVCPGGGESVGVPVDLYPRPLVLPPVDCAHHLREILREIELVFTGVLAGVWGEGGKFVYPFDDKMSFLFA
Sequence (P10236 whole entry): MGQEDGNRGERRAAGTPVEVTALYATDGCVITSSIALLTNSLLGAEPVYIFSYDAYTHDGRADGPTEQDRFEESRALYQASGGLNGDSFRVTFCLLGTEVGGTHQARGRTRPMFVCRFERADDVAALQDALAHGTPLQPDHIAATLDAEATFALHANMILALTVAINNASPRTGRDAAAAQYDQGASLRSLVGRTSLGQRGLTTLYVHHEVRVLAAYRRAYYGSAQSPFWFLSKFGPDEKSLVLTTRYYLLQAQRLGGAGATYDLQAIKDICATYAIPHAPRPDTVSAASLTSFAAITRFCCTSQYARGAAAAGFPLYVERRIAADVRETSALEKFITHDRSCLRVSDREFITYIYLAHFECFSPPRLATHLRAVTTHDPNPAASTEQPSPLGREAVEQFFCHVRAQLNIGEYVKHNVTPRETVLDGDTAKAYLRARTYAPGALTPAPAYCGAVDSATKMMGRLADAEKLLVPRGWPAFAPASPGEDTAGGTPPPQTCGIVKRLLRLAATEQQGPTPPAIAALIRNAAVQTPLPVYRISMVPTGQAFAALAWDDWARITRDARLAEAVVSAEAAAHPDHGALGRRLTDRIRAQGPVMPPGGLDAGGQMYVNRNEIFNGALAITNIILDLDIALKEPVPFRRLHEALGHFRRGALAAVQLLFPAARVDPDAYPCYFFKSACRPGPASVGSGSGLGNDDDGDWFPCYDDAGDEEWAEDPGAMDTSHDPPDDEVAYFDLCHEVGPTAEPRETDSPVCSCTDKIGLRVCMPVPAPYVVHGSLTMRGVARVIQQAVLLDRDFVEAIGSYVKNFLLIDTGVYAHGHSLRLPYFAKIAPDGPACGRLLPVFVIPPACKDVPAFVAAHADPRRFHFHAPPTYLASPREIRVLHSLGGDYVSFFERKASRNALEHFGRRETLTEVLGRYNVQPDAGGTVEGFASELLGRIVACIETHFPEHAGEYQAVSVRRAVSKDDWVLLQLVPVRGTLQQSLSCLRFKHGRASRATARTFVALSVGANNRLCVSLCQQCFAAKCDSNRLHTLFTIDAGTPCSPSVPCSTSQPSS
Sequence (P10189 whole entry): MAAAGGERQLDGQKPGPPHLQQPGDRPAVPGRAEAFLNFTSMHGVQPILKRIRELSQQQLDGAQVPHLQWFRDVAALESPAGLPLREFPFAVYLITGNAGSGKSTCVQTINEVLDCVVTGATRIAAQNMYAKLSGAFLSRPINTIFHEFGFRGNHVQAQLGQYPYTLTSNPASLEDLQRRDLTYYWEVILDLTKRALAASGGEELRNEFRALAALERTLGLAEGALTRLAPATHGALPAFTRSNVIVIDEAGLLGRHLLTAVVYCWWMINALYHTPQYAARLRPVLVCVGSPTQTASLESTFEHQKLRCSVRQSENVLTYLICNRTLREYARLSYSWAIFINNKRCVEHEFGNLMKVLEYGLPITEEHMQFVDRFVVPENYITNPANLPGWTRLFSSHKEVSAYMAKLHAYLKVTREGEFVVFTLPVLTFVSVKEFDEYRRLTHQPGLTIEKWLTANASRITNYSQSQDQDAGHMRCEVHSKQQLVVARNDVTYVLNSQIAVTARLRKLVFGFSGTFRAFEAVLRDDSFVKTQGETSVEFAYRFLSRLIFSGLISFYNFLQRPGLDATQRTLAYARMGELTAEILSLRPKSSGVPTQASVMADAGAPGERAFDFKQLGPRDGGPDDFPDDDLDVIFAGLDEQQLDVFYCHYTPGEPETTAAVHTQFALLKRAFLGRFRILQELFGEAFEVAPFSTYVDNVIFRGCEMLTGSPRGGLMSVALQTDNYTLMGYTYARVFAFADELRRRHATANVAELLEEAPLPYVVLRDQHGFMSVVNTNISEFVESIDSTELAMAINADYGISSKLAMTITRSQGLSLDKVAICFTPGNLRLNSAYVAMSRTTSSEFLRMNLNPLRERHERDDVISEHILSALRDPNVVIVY
Assay: HSV-1 DNA-dependent ATPase assay (inhibition of HSV-1 helicase-primase)
Format: biochemical
Settings: Group 1 Table 5 entries
Experimental: A) HSV-1 DNA-Dependent ATP Assay (an in Vitro Assay Based on the Inhibition of HSV-1 Helicase-primase). […] The DNA-dependent ATPase assay, described by J. J. Crute et al., Nucleic Acids Res. 1988, 16, 6585, was modified and used to evaluate the capability of the compounds of Group 1-formula 1 to inhibit HSV-1 helicase-primase activity. […] DNA-dependent ATPase activity was calculated from the net absorbance change in the presence and absence of inhibition.
endpoint: IC50 (nM)

>>> df
                                    compound  measurement
 0  CC(=O)N[C@@H](Cc1ccccc1)C(=O)Nc1ccc(-c2csc(N)n2)cc1 [Example 21]         3100
 1  CC(C)(C)OC(=O)N[C@@H](Cc1cccnc1)C(=O)Nc1ccc(-c2csc(N)n2)cc1 [Example 26]          130
 2  C[C@@H](NCc1ccccc1)C(=O)Nc1ccc(-c2csc(N)n2)cc1 [Example 13]         2000
 3  Nc1nc(-c2ccc(NC(=O)[C@@H](Cc3ccccc3)N(Cc3ccccc3)C(=O)C3CCCCC3)cc2)cs1 [Example 9]           52
 4  CC(C)(C)CC(=O)N[C@@H](Cc1ccccc1)C(=O)Nc1ccc(-c2csc(N)n2)cc1 [Example 19]           51
 5  C[C@H](NCc1ccccc1)C(=O)Nc1ccc(-c2csc(N)n2)cc1 [Example 12]         1300
 6  CC(C)OC(=O)N[C@@H](Cc1ccccc1)C(=O)Nc1ccc(-c2csc(N)n2)cc1 [Example 22]          830
 7  CN[C@H](Cc1ccccc1)C(=O)Nc1ccc(-c2csc(N)n2)cc1 [Example 18]        24500
 8  C[C@@H](C(=O)Nc1ccc(-c2csc(N)n2)cc1)N(Cc1ccccc1)C(=O)OC(C)(C)C [Example 16]          460
 9  CN(C(=O)C1CCCCC1)[C@@H](Cc1ccccc1)C(=O)Nc1ccc(-c2csc(N)n2)cc1 [Example 5]          220
10  Nc1nc(-c2ccc(NC(=O)[C@@H](Cc3ccccc3)NCc3ccccc3)cc2)cs1 [Example 7]         6600
11  CN(C(=O)OC(C)(C)C)[C@@H](Cc1ccccc1)C(=O)Nc1ccc(-c2csc(N)n2)cc1 [Example 10]           90
12  Nc1nc(-c2ccc(NC(=O)[C@H](Cc3ccccc3)NCc3ccccc3)cc2)cs1 [Example 6]         1060
13  C[C@H](C(=O)Nc1ccc(-c2csc(N)n2)cc1)N(Cc1ccccc1)C(=O)OC(C)(C)C [Example 17]          110
14  C[C@@H](C(=O)Nc1ccc(-c2csc(N)n2)cc1)N(Cc1ccccc1)C(=O)C1CCCCC1 [Example 14]          110
15  Nc1nc(-c2ccc(NC(=O)[C@H](Cc3ccccc3)N(Cc3ccccc3)C(=O)C3CCCCC3)cc2)cs1 [Example 11]          400
16  C[C@H](C(=O)Nc1ccc(-c2csc(N)n2)cc1)N(Cc1ccccc1)C(=O)C1CCCCC1 [Example 15]           41

###

Test system: HCMV (strain AD169)
Assay: Inhibition of HCMV replication, plaque reduction assay (PRA, Hs-68 cells)
Assay type: cell-based, Human Cytomegalovirus (HCMV)
Conditions: Human betaherpesvirus 5, AD169, Hs68, Group 2 Table 1 entries, read-out: PRA CMV EC50
# maps each entry to its log10(EC50)
endpoint: log10(EC50) (log10 of the value in µM)

>>> df
                                    compound  measurement
 0  Nc1nc(-c2ccc(NC(=O)NCCc3c[nH]c4ccccc34)cc2)cs1 [Example 19]         1.08
 1  CCCCNC(=O)Nc1ccc(-c2csc(N)n2)cc1 [Example 2]         1.08
 2  CCCC(CCC)NC(=O)Nc1ccc(-c2csc(N)n2)cc1 [Example 11]         1.11
 3  CN(CCc1ccccn1)C(=O)Nc1ccc(-c2csc(NC(=O)OC(C)(C)C)n2)cc1 [Example 14]         0.30
 4  CCCCN(CCCC)C(=O)Nc1ccc(-c2csc(Nc3ccccn3)n2)cc1 [Example 35]         0.34
 5  Nc1nc(-c2ccc(NC(=O)N[C@H](CO)Cc3ccccc3)cc2)cs1 [Example 28]         1.48
 6  CN(CCc1ccccn1)C(=O)[C@H](Cc1ccccc1)NC(=O)Nc1ccc(-c2csc(N)n2)cc1 [Example 9]         1.56
 7  CN(CCc1ccncc1)C(=O)Nc1ccc(-c2csc(NC(=O)OC(C)(C)C)n2)cc1 [Example 29]         0.59
 8  CCCCN(C)C(=O)Nc1ccc(-c2csc(NC(=O)OC(C)(C)C)n2)cc1 [Example 30]         0.34
 9  CCCCNc1nc(-c2ccc(NC(=O)N(CCCC)CCCC)cc2)cs1 [Example 34]         1.00
10  CCCCN(CCCC)C(=O)Nc1ccc(-c2csc(Nc3cccnc3)n2)cc1 [Example 36]         0.48
11  CCCCN(CC#N)C(=O)Nc1ccc(-c2csc(NC(=O)OC(C)(C)C)n2)cc1 [Example 33]         0.38
12  CCCCN(CCCC)C(=O)Nc1ccc(-c2csc(NC(=O)OC(C)(C)C)n2)cc1 [Example 15]         0.04
13  CCCCN(CCO)C(=O)Nc1ccc(-c2csc(NC(=O)OC(C)(C)C)n2)cc1 [Example 32]         0.30
14  CCCCN(CC)C(=O)Nc1ccc(-c2csc(NC(=O)OC(C)(C)C)n2)cc1 [Example 31]         0.30
15  CCCCN(CCCC)C(=O)Nc1ccc(-c2csc(N)n2)cc1 [Example 1]         1.57

###

Catalogue of pIC50 values
Biological target: HSV-1 helicase-primase (Human herpesvirus 1, UniProt P10189+P10236)
Construct: made in house; host or cells: Sf21 insect cells triply infected with recombinant baculoviruses (UL5, UL8, UL52)
Experiment: HSV-1 DNA-dependent ATPase assay (inhibition of HSV-1 helicase-primase)
Assay type: biochemical
Details: Group 2 Table 1 entries
pIC50: −log10 of the molar value.
endpoint: pIC50

>>> df
                                    compound  resultoperator  measurement
 0  Nc1nc(-c2ccc(NC(=O)NCCc3ccc(F)cc3)cc2)cs1 [Example 24]               =         4.52
 1  Nc1nc(-c2ccc(NC(=O)NCc3ccccc3F)cc2)cs1 [Example 23]               =         5.70
 2  CN(CCc1ccccn1)C(=O)Nc1ccc(-c2csc(NC(=O)OC(C)(C)C)n2)cc1 [Example 14]               <         4.00
 3  CCCCN(CCCC)C(=O)Nc1ccc(-c2csc(N)n2)cc1 [Example 1]               =         5.38
 4  Nc1nc(-c2ccc(NC(=O)NCc3ccccc3)cc2)cs1 [Example 20]               =         6.05
 5  Nc1nc(-c2ccc(NC(=O)NN3CCCCC3)cc2)cs1 [Example 27]               =         4.30
 6  Nc1nc(-c2ccc(NC(=O)NCCc3ccccn3)cc2)cs1 [Example 3]               =         5.28
 7  Nc1nc(-c2ccc(NC(=O)NCCCn3ccnc3)cc2)cs1 [Example 10]               =         5.33
 8  C[C@H](NC(=O)Nc1ccc(-c2csc(N)n2)cc1)c1ccccc1 [Example 26]               =         6.23
 9  CN(C)c1ccc(CNC(=O)Nc2ccc(-c3csc(N)n3)cc2)cc1 [Example 25]               =         5.54
10  Nc1nc(-c2ccc(NC(=O)NCCc3ccccc3)cc2)cs1 [Example 13]               =         4.43

###

System: HCMV (strain AD169)
Assay: Inhibition of HCMV replication, plaque reduction assay (PRA, Hs-68 cells)
Type: cell-based, Human Cytomegalovirus (HCMV)
Conditions: Human betaherpesvirus 5, AD169, Hs68, Group 1 Table 1 entries, read-out: PRA CMV EC50
pEC50: −log10 of the molar value.
endpoint: pEC50

In [3]: df
Out[3]:
                                   cpdsmiles  resultoperator  measurement
 0  Nc1nc(-c2ccc(NC(=O)CN(Cc3ccccc3)C(=O)Cc3cccnc3)cc2)cs1               <         4.30
 1  Cc1ccccc1CN(CC(=O)Nc1ccc(-c2csc(N)n2)cc1)C(=O)COc1c(C)cccc1C               =         4.92
 2  C[C@@H](c1ccccc1)N(CC(=O)Nc1ccc(-c2csc(N)n2)cc1)C(=O)C1CCCCC1               =         4.92
 3  NCC(=O)N(CC(=O)Nc1ccc(-c2csc(N)n2)cc1)Cc1ccccc1               <         4.49
 4  Cc1ccccc1CN(CC(=O)Nc1ccc(-c2csc(N)n2)cc1)C(=O)c1cccs1               =         4.55
 5    Nc1nc(-c2ccc(NC(=O)CNCc3ccccc3)cc2)cs1               <         4.22
 6  CN(C)CCN(CC(=O)Nc1ccc(-c2csc(N)n2)cc1)C(=O)C1CCCCC1               =         4.54
 7  Nc1nc(-c2ccc(NC(=O)CN(Cc3ccc(F)cc3)C(=O)c3ccncc3)cc2)cs1               =         4.43
 8  C[C@@H](c1ccccc1)N(CC(=O)Nc1ccc(-c2csc(N)n2)cc1)C(=O)c1ccncc1               =         4.52
 9  Nc1nc(-c2ccc(NC(=O)CN(CC3CCCCC3)C(=O)Cc3ccccc3)cc2)cs1               =         5.12
10  Nc1nc(-c2ccc(NC(=O)CNC(=O)c3ccncc3)cc2)cs1               <         4.15
11  Nc1nc(-c2ccc(NC(=O)CN(Cc3ccccc3)C(=O)c3cccnc3)cc2)cs1               =         4.46
12  Nc1nc(-c2ccc(NC(=O)CNC(=O)c3ccccn3)cc2)cs1               =         4.70
13  CCCC(CCC)N(CC(=O)Nc1ccc(-c2csc(N)n2)cc1)C(=O)C1CCCCC1               =         5.15
14  Nc1nc(-c2ccc(NC(=O)CN(Cc3ccccn3)C(=O)C3CCCCC3)cc2)cs1               <         3.99
15  CC(C)(C)CN(CC(=O)Nc1ccc(-c2csc(N)n2)cc1)C(=O)C1CCCCC1               =         5.02
16  CC(C)(C)OC(=O)NCC(=O)N(CC(=O)Nc1ccc(-c2csc(N)n2)cc1)Cc1ccccc1               =         4.62
